# measurementNotes: Ex vivo biodistribution in mice bearing LNCaP tumor xenografts
# Design: species or system mouse (male NOD-scid IL2Rg^null (NSG))
# testConditions: mouse, brain, iv, 1 h Blocked (co-injection of 2-PMPA, 0.5 mg), mean ± SD; read-out: Brain uptake
assayEndpoint: tissue uptake at 1 h

O=C(O)CC[C@H](NC(=O)N[C@@H](CCCCNC(=O)[C@H](Cc1c2ccccc2cc2ccccc12)NC(=O)[C@H]1CC[C@H](CNC(=O)[C@H](CCNC(=O)c2ccc(F)nc2)NC(=O)CCC(=O)N(CC(=O)O)CC(=O)O)CC1)C(=O)O)C(=O)O [^18F-KL01120]    0.03 %ID/g

As a next step, examine the molecule that follows.
GET /value?item= O=C(O)CCC[C@H](NC(=O)N[C@@H](CCCCNC(=O)[C@H](Cc1c2ccccc2cc2ccccc12)NC(=O)[C@H]1CC[C@H](CNC(=O)CNC(=O)[C@H](CCCCNC(=O)c2ccc(F)nc2)NC(=O)CN(CC(=O)O)CC(=O)O)CC1)C(=O)O)C(=O)O [^18F-KL01130] &field=tissue uptake at 1 h returns 0.04 %ID/g

The measurements presented in this section are drawn from patent US20260306680A1.
